# conditionsUsed: 338.15 K; 101.33 kPa; Liquid; Sing-around technique in a fixed-path interferometer
observable: speed of sound (m/s)

1) CCCC(=O)[O-].C[NH+]1CCCC1=O [N-methyl-2-oxopyrrolidinium butanoate] = 1276.3
2) CCCCC(=O)[O-].C[NH+]1CCCC1=O [N-methyl-2-oxopyrrolidinium pentanoate] = 1271.8
3) CCC(=O)[O-].C[NH+]1CCCC1=O [N-methyl-2-oxopyrrolidinium propionate] = 1300
4) CCCCCC(=O)[O-].C[NH+]1CCCC1=O [N-methyl-2-oxopyrrolidinium hexanoate] = 1276.8
5) CC(=O)[O-].C[NH+]1CCCC1=O [N-methyl-2-oxopyrrolidinium acetate] = 1329.2
6) C[NH+]1CCCC1=O.O=C[O-] [N-methyl-2-oxopyrrolidinium formate] = 1337.6

###

# conditionsUsed: 333.15 K; 101.33 kPa; Liquid; Sing-around technique in a fixed-path interferometer
observable: speed of sound (m/s)

1) CCCCC(=O)[O-].C[NH+]1CCCC1=O [N-methyl-2-oxopyrrolidinium pentanoate] = 1288.7
2) C[NH+]1CCCC1=O.O=C[O-] [N-methyl-2-oxopyrrolidinium formate] = 1354.8
3) CCC(=O)[O-].C[NH+]1CCCC1=O [N-methyl-2-oxopyrrolidinium propionate] = 1317.5
4) CCCC(=O)[O-].C[NH+]1CCCC1=O [N-methyl-2-oxopyrrolidinium butanoate] = 1293.5
5) CC(=O)[O-].C[NH+]1CCCC1=O [N-methyl-2-oxopyrrolidinium acetate] = 1346.9
6) CCCCCC(=O)[O-].C[NH+]1CCCC1=O [N-methyl-2-oxopyrrolidinium hexanoate] = 1293.7

###

# conditionsUsed: 343.15 K; 101.33 kPa; Liquid; Sing-around technique in a fixed-path interferometer
observable: speed of sound (m/s)

1) C[NH+]1CCCC1=O.O=C[O-] [N-methyl-2-oxopyrrolidinium formate] = 1320.5
2) CCCCCC(=O)[O-].C[NH+]1CCCC1=O [N-methyl-2-oxopyrrolidinium hexanoate] = 1260.2
3) CCC(=O)[O-].C[NH+]1CCCC1=O [N-methyl-2-oxopyrrolidinium propionate] = 1282.6
4) CCCC(=O)[O-].C[NH+]1CCCC1=O [N-methyl-2-oxopyrrolidinium butanoate] = 1259.1
5) CC(=O)[O-].C[NH+]1CCCC1=O [N-methyl-2-oxopyrrolidinium acetate] = 1311.5
6) CCCCC(=O)[O-].C[NH+]1CCCC1=O [N-methyl-2-oxopyrrolidinium pentanoate] = 1255

###

# conditionsUsed: 308.15 K; 101.33 kPa; Liquid; Vibrating tube method
observable: mass density (kg/m3)

1. CCCC(=O)[O-].C[NH+]1CCCC1=O [N-methyl-2-oxopyrrolidinium butanoate] = 997.18
2. CC(=O)[O-].C[NH+]1CCCC1=O [N-methyl-2-oxopyrrolidinium acetate] = 1036.77
3. CCCCC(=O)[O-].C[NH+]1CCCC1=O [N-methyl-2-oxopyrrolidinium pentanoate] = 981.38
4. C[NH+]1CCCC1=O.O=C[O-] [N-methyl-2-oxopyrrolidinium formate] = 1062.2
5. CCCCCC(=O)[O-].C[NH+]1CCCC1=O [N-methyl-2-oxopyrrolidinium hexanoate] = 970.39
6. CCC(=O)[O-].C[NH+]1CCCC1=O [N-methyl-2-oxopyrrolidinium propionate] = 1018.74

###

# conditionsUsed: 318.15 K; 101.33 kPa; Liquid; Falling or rolling sphere viscometry
observable: viscosity (mPa·s)

1. C[NH+]1CCCC1=O.O=C[O-] [N-methyl-2-oxopyrrolidinium formate] = 1.58
2. CCCCC(=O)[O-].C[NH+]1CCCC1=O [N-methyl-2-oxopyrrolidinium pentanoate] = 2.513
3. CCC(=O)[O-].C[NH+]1CCCC1=O [N-methyl-2-oxopyrrolidinium propionate] = 1.9
4. CCCC(=O)[O-].C[NH+]1CCCC1=O [N-methyl-2-oxopyrrolidinium butanoate] = 2.295

[1] CC(=O)[O-].C[NH+]1CCCC1=O [N-methyl-2-oxopyrrolidinium acetate]
[2] CCCCCC(=O)[O-].C[NH+]1CCCC1=O [N-methyl-2-oxopyrrolidinium hexanoate]
Input line: Please choose the item with the lower viscosity value from this pair: 1 and 2 Write down the label of the entry you select.
Output line: 1
(1: 1.799 mPa·s, 2: 2.843 mPa·s)

###

# conditionsUsed: 313.15 K; 101.33 kPa; Liquid; Sing-around technique in a fixed-path interferometer
observable: speed of sound (m/s)

1. C[NH+]1CCCC1=O.O=C[O-] [N-methyl-2-oxopyrrolidinium formate] = 1424.8
2. CCCCCC(=O)[O-].C[NH+]1CCCC1=O [N-methyl-2-oxopyrrolidinium hexanoate] = 1362
3. CCC(=O)[O-].C[NH+]1CCCC1=O [N-methyl-2-oxopyrrolidinium propionate] = 1388.4
4. CC(=O)[O-].C[NH+]1CCCC1=O [N-methyl-2-oxopyrrolidinium acetate] = 1418.7
5. CCCC(=O)[O-].C[NH+]1CCCC1=O [N-methyl-2-oxopyrrolidinium butanoate] = 1364.4
6. CCCCC(=O)[O-].C[NH+]1CCCC1=O [N-methyl-2-oxopyrrolidinium pentanoate] = 1358

###

# conditionsUsed: 293.15 K; 101.33 kPa; Liquid; Falling or rolling sphere viscometry
observable: viscosity (mPa·s)

Consider the reported viscosity for these molecules:
1) CC(=O)[O-].C[NH+]1CCCC1=O [N-methyl-2-oxopyrrolidinium acetate] = 2.933
2) CCCCCC(=O)[O-].C[NH+]1CCCC1=O [N-methyl-2-oxopyrrolidinium hexanoate] = 5.211
3) CCCCC(=O)[O-].C[NH+]1CCCC1=O [N-methyl-2-oxopyrrolidinium pentanoate] = 4.448
4) CCC(=O)[O-].C[NH+]1CCCC1=O [N-methyl-2-oxopyrrolidinium propionate] = 3.136

[1] CCCC(=O)[O-].C[NH+]1CCCC1=O [N-methyl-2-oxopyrrolidinium butanoate]
[2] C[NH+]1CCCC1=O.O=C[O-] [N-methyl-2-oxopyrrolidinium formate]
Input line: Please choose the item with the lower viscosity value from this pair: 1 and 2 Write down the label of the entry you select.
Output line: 2
(2: 2.451 mPa·s, 1: 3.996 mPa·s)

###

# conditionsUsed: 318.15 K; 101.33 kPa; Liquid; Sing-around technique in a fixed-path interferometer
observable: speed of sound (m/s)

1) CCCCC(=O)[O-].C[NH+]1CCCC1=O [N-methyl-2-oxopyrrolidinium pentanoate] = 1340.7
2) CCCC(=O)[O-].C[NH+]1CCCC1=O [N-methyl-2-oxopyrrolidinium butanoate] = 1346.7
3) CCC(=O)[O-].C[NH+]1CCCC1=O [N-methyl-2-oxopyrrolidinium propionate] = 1370.6
4) CCCCCC(=O)[O-].C[NH+]1CCCC1=O [N-methyl-2-oxopyrrolidinium hexanoate] = 1344.8
5) C[NH+]1CCCC1=O.O=C[O-] [N-methyl-2-oxopyrrolidinium formate] = 1407.2
6) CC(=O)[O-].C[NH+]1CCCC1=O [N-methyl-2-oxopyrrolidinium acetate] = 1400.6

###

# conditionsUsed: 333.15 K; 101.33 kPa; Liquid; Falling or rolling sphere viscometry
observable: viscosity (mPa·s)

1) C[NH+]1CCCC1=O.O=C[O-] [N-methyl-2-oxopyrrolidinium formate] = 1.295

[I] CC(=O)[O-].C[NH+]1CCCC1=O [N-methyl-2-oxopyrrolidinium acetate]
[II] CCCCCC(=O)[O-].C[NH+]1CCCC1=O [N-methyl-2-oxopyrrolidinium hexanoate]
Input line: Name the one with the greater viscosity value, either I or II as given. Write down the label of the entry you select.
Output line: II
(II: 2.135 mPa·s, I: 1.435 mPa·s)

###

# conditionsUsed: 343.15 K; 101.33 kPa; Liquid; Vibrating tube method
observable: mass density (kg/m3)

1. CCC(=O)[O-].C[NH+]1CCCC1=O [N-methyl-2-oxopyrrolidinium propionate] = 986.49
2. C[NH+]1CCCC1=O.O=C[O-] [N-methyl-2-oxopyrrolidinium formate] = 1028.88
3. CCCCC(=O)[O-].C[NH+]1CCCC1=O [N-methyl-2-oxopyrrolidinium pentanoate] = 951.01
4. CCCCCC(=O)[O-].C[NH+]1CCCC1=O [N-methyl-2-oxopyrrolidinium hexanoate] = 940.79
5. CC(=O)[O-].C[NH+]1CCCC1=O [N-methyl-2-oxopyrrolidinium acetate] = 1004.05
6. CCCC(=O)[O-].C[NH+]1CCCC1=O [N-methyl-2-oxopyrrolidinium butanoate] = 965.75

###

# conditionsUsed: 293.15 K; 101.33 kPa; Liquid; Sing-around technique in a fixed-path interferometer
observable: speed of sound (m/s)

1) CCC(=O)[O-].C[NH+]1CCCC1=O [N-methyl-2-oxopyrrolidinium propionate] = 1460.3
2) C[NH+]1CCCC1=O.O=C[O-] [N-methyl-2-oxopyrrolidinium formate] = 1496
3) CCCC(=O)[O-].C[NH+]1CCCC1=O [N-methyl-2-oxopyrrolidinium butanoate] = 1435.6
4) CCCCCC(=O)[O-].C[NH+]1CCCC1=O [N-methyl-2-oxopyrrolidinium hexanoate] = 1431.4
5) CCCCC(=O)[O-].C[NH+]1CCCC1=O [N-methyl-2-oxopyrrolidinium pentanoate] = 1427.7
6) CC(=O)[O-].C[NH+]1CCCC1=O [N-methyl-2-oxopyrrolidinium acetate] = 1491.5
